# Assay Details: Dog pharmacokinetics
# Format: in vivo
# Assay Conditions: male, Beagle, whole blood, combined data for Example 1 and 3
Observable: half-life

Sure, the documented half-life for CC1(C)CCCN(CCCOc2ccc(C3CCN(C(=O)c4ccc(CCC(=O)O)c5ccccc45)CC3)cc2)C1.Cl is ~3 h

compound CC1(C)CCCN(CCCOc2ccc(C3CCN(C(=O)c4ccc(CCC(=O)O)c5ccccc45)CC3)cc2)C1 , half-life observed: ~3 h
